EXPERIMENT_NOTES: inhibitors of intracellular T. cruzi replication, confirmation, NIH3T3 host cells, beta-gal luminescence (AID 2044);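 further: intracellular parasites grown in NIH/3T3 mouse fibroblasts as host cells; luminescent beta-galactosidase reporter signal from transgenic T. cruzi replicating inside host cells; inhibitors lower the luminescence signal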
Type: functional, cell-based
The source made the active and inactive calls. No stated cut-off is given here; in the data, actives have a measured EC50 and inactives only a lower limit.
Reported EC50 values for a set of compounds

INPUT: # EC50 lookup, item COc1cccc(C(=O)NC2CCN(C(=O)N3c4ccccc4Sc4ccccc43)CC2)c1
OUTPUT: 2.23 µM (active)

INPUT: # iterate: Cn1c(-c2ccccc2)c(C(=O)CCl)c2ccccc21
OUTPUT: 0.998 µM (active)

INPUT: # iterate: Cc1cccc(-n2c(SCc3ccc([N+](=O)[O-])cc3)nnc2-c2c[nH]c3ccccc23)c1
OUTPUT: 1.77 µM (active)

INPUT: # iterate: O=[N+]([O-])c1cc(Oc2cccnc2)cc([N+](=O)[O-])c1
OUTPUT: 0.503 µM (active)

INPUT: # iterate: CC(=O)NC(c1ccc(C(C)C)cc1)c1ccc2cccnc2c1O (stereo not drawn)
OUTPUT: 0.337 µM (active)

INPUT: # iterate: CCN(CC)c1ccc(NC(=O)COc2ccc(N(C)S(=O)(=O)c3cccs3)cc2)cc1
OUTPUT: 2.28 µM (active)

INPUT: # iterate: CCCCN(C)CCCNC(=O)c1ccc2c(c1)N(CC)C(=O)c1ccccc1[S+]2[O-] (stereo not drawn)
OUTPUT: 0.238 µM (active)

INPUT: # iterate: Fc1ccc(Sc2ccccc2CNC2=NCCN2)cc1
OUTPUT: 1.49 µM (active)

Hello, the source for this data is ChEMBL document CHEMBL1201862, in case you need it.
